Recorded pIC50 values for a group of compounds are listed next.
System: Leishmania donovani axenic amastigotes (MHOM-ET-67/L82 strain)
Assay: In vitro activity against L. donovani axenic amastigotes (resazurin)
Format: cell-based
Conditions: Leishmania donovani, geometric mean of two independent determinations
In plain terms, pIC50 is the concentration in mol/L turned into minus its base-10 logarithm.

>  <SMI>
CCCCCCCCCCCCCCCCOP(=O)([O-])OCC[N+](C)(C)C

>  <REPORTED VALUE>
6.92

$$$$

Please examine the following record next.
Tested on Leishmania donovani axenic amastigotes (MHOM-ET-67/L82 strain), the item "C[C@H]1[C@H](C)CC[C@]2(C)CC[C@]3(C)C(=CC[C@@H]4[C@@]5(C)CC[C@@H](O)[C@](C)(C(=O)O)[C@@H]5CC[C@]43C)[C@H]12" showed pIC50 equal to 5.28
